Tested on: SEM cells
assay_overview: cell viability relative to DMSO control; higher = less cytotoxic
conditions: RPMI 5 mM glucose + 10% dialyzed FBS; 48 h; 0.0632 µM
assay_metric: cell viability (%)
Numbers only, in %.

Solved cases (8 shown):
[[record]]
molecule = "c1ccc2c(-c3cnn4cc(-c5ccc(N6CCNCC6)cc5)cnc34)ccnc2c1"
assayed_target = "SEM cells"
recorded_number = 151

[[record]]
molecule = "CC(C)[C@H](CO)Nc1nc(Nc2ccc(C(=O)O)c(Cl)c2)c2ncn(C(C)C)c2n1"
assayed_target = "SEM cells"
recorded_number = 116

[[record]]
molecule = "CC1=C(C)C2=C(S1)[N]3C(=NN=C3[C@H](CC(=O)OC(C)(C)C)/N=C2/C4=CC=C(Cl)C=C4)C"
assayed_target = "SEM cells"
recorded_number = 94.7

[[record]]
molecule = "N/C(=N\\C(=O)c1nc(Cl)c(N)nc1N)NCc1ccccc1"
assayed_target = "SEM cells"
recorded_number = 81.6

[[record]]
molecule = "Cc1cc(SCc2sc(-c3ccc(C(F)(F)F)c(F)c3)nc2C)ccc1OCC(=O)O"
assayed_target = "SEM cells"
recorded_number = 93.6

[[record]]
molecule = "COc1cc2ncnc(Nc3ccc(F)c(Cl)c3)c2cc1OCCCN1CCOCC1"
assayed_target = "SEM cells"
recorded_number = 125

[[record]]
molecule = "COc1ccc(Cn2ccc3ccc(C(=O)NO)cc32)cc1"
assayed_target = "SEM cells"
recorded_number = 114

[[record]]
molecule = "C[C@@H]1CN(CC(=O)N2CC(C)(C)c3ncc(Cc4ccc(F)cc4)cc32)[C@@H](CN2CCOC[C@H]2C)CN1"
assayed_target = "SEM cells"
recorded_number = 103


Please give cell viability for each item listed below.
1. Clc1ccc(COC(Cn2ccnc2)c2ccc(Cl)cc2Cl)cc1 (stereo not drawn)
2. Cl.Cl.Fc1ccc(C(OCCN2CCN(CCCc3ccccc3)CC2)c2ccc(F)cc2)cc1
3. CCCn1c(=O)c2[nH]c(C34CC5CC3C[C@@H](C5)C4)nc2n(CCC)c1=O
4. CC(Oc1ccc(O)cc1)(P(=O)(O)O)P(=O)(O)O
5. Nc1ccc([S+](=O)([O-])Nc2ccccn2)cc1

// result
1. 92.2
2. 120
3. 117
4. 113
5. 113
